assayProcedure: APR_HepG2_MitoMass_24hr: Apredica 24-hour HepG2 Assay for Mitochondrial Mass (AID 2282912)
assaySetup: high-content imaging, actives raise or lower the signal
Procedure: APR_HepG2_24hr is a cell-based, multiplexed-readout assay that uses HepG2, a human liver cell line, with measurements taken at 24 hours after chemical dosing in a 384-well plate.APR_HepG2_MitoMass_24hr is one of 10 assay component(s) measured or calculated from the APR_HepG2_24hr assay. […] This assay endpoint, APR_HepG2_MitoMass_24hr, was analyzed with bidirectional fitting relative to DMSO as the negative control and baseline of activity. […]
Calls of active or inactive are those of the source. Rule for the calls: active = hit-call score of the fitted dose curve at least 0.9, where 1 is the maximum; inactive = score below 0.9.
testReadout: AC50

Consider the worked cases shown below.
CCCOC(=O)c1ccc(O)cc1; inactive
CCCCCCCCC(=O)O; inactive
CC(C)(C)CC(C)(C)c1ccc(O)c(-n2nc3ccccc3n2)c1; inactive
CCCCCCCCCCCCN1CCCC1=O; 51 µM (active)
CCC(C)(C)C1CCC(O)CC1 (stereo unspecified); inactive

Please look at the following compound next.
Give the reported AC50 for this compound. `O=c1c(-c2ccc(O)cc2)coc2cc(O)ccc12`
inactive

* * *

Read-out: Interleukin-1 alpha (IL1a), IL1A (gene 3552)
assayProcedure: BSK_LPS_IL1a: BioMAP Diversity Plus: LPS Assay for Interleukin-1 alpha (IL1a) Biomarker Activity (AID 2283080)
assaySetup: primary human HUVEC with PBMC; actives raise or lower the signal
Active and inactive are the calls of the source. Rule for the calls: active = hit-call score of the fitted dose curve at least 0.9, where 1 is the maximum; inactive = score below 0.9.
Assign a class; possible classes are label 1 (active), label 0 (inactive)

Consider the worked cases shown below.
CC[C@H](c1ccc(O)cc1)[C@@H](CC)c1ccc(O)cc1; label 1
NC(=O)N(O)[C@@H]1C=C[C@H](Oc2cccc(Oc3ccc(F)cc3)c2)C1; label 0

Please indicate how the test categorized `CC[C@H](C)[C@@H](C(=O)O)n1sc2ccccc2c1=O` .
label 1

Please indicate how the test categorized `c1ccc2cc3c(ccc4ccccc43)cc2c1` .
label 0

Please indicate how the test categorized `Nc1cccc2c(N)cccc12` .
label 0

Please indicate how the test categorized `CN1CCN(c2ccccc2/C=C2\SCCN(c3ccc(Cl)c(Cl)c3)C2=O)CC1` .
label 1

Please indicate how the test categorized NC(=O)N1C(=O)C(C(=O)c2cc(Cl)cs2)c2cc(F)c(Cl)cc21 (stereo not given) .
label 1

Please indicate how the test categorized `CC(C)(C)CC(C)(C)c1ccc(O)c(-n2nc3ccccc3n2)c1` .
label 0

* * *

Read-out: JUN Transcription Factor, JUN (gene 3725)
assayProcedure: LTEA_HepaRG_JUN: Life Technologies and Expression Analysis (LTEA) Assay for JUN Transcription Factor using HepaRG (AID 2283513)
assaySetup: mRNA level, 48 h; actives raise or lower the signal
Calls of active or inactive are those of the source. The calls were made as follows: active = hit-call score of the fitted dose curve at least 0.9, where 1 is the maximum; inactive = score below 0.9.
Assign a class; possible classes are T (active), F (inactive)

Consider the worked cases shown below.
Oc1cccc(O)c1; F
c1ccc2c(c1)Cc1ccccc1-2; F
CC[C@H](C)[C@@H](C(=O)O)n1sc2ccccc2c1=O; F
CC(=O)NC1(c2cccc(F)c2)CCN(CC[C@@]2(c3ccc(Cl)c(Cl)c3)CN(c3ccccc3)C(=O)CO2)CC1; T
OC1CCCCC1; F
Cc1oc(-c2ccccc2)nc1CCOc1ccc(C[C@H](Nc2ccccc2C(=O)c2ccccc2)C(=O)O)cc1; T

Please indicate how the test categorized `CCOC(=O)CC(O)(CC(=O)OCC)C(=O)OCC` .
F

Please indicate how the test categorized CC(O)CO (configuration not stated) .
F

Please indicate how the test categorized `Oc1cc2ccccc2c2ccccc12` .
F

Please indicate how the test categorized `CCCOC(=O)c1ccc(O)cc1` .
F

Please indicate how the test categorized `CC#C[C@]1(O)CC[C@H]2[C@@H]3CCC4=CC(=O)CCC4=C3[C@@H](c3ccc(N(C)C)cc3)C[C@@]21C` .
T
